# experimental target: R12A Bcl2 mutant (Homo sapiens, UniProt P10415, R12A)
# test name: Competitive fluorescence polarization assay
readout: Ki (nM)
I only need the number, in nM, no unit after it.

The compound listed as CCN(CC)C[C@@H](O)CNc1ccc(NC[C@H]2CO2)c2c1C(=O)c1ccccc1C2=O [BDA-366] shows Ki equal to 4.3

----------
readout: Ki (nM)
The reply should be a number in nM, with the unit left off.

CCN(CC)C[C@@H](O)CNc1ccc(NC[C@H]2CO2)c2c1C(=O)c1ccccc1C2=O tested on UniProt:P10415 gave Ki: 3.3

----------
# experimental target: H20A Bcl2 mutant (Homo sapiens, UniProt P10415, H20A)
# Sequence (P10415 whole entry H20A): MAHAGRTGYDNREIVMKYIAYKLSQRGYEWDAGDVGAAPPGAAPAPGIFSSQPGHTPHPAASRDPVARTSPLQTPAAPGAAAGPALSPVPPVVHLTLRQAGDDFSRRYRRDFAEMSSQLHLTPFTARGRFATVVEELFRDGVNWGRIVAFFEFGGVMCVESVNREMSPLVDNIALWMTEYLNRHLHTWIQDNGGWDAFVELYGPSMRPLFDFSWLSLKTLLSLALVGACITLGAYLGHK
# test name: Competitive fluorescence polarization assay
readout: Ki
// unit must come after the numeric part

Recorded Ki (compound CCN(CC)C[C@@H](O)CNc1ccc(NC[C@H]2CO2)c2c1C(=O)c1ccccc1C2=O [BDA-366] ): 3.8 nM
